All figures here come from patent US12297223B2.

# EXPERIMENT: Rat pharmacokinetics after IV infusion and oral dose (AUC oral, % F, Ue % PO)
# Assay type: in vivo, Male Wistar Han rats
# STATED CONDITIONS: PO 5 mg/kg, dose normalized AUC in blood, n = 3
TEST READOUT: DNAUC oral h*uM

1) C=C[C@H](c1ccc(-c2cc(F)c3nccnc3c2)cc1C)[C@H]1O[C@H](CO)[C@@H](O)[C@H](O)[C@@H]1O	“+” (<0.5 h · μM)
2) C=C[C@H](c1ccc(-c2cnc(C3CC3)cn2)cc1C)[C@H]1O[C@H](CO)[C@@H](O)[C@H](O)[C@@H]1O	“+” (<0.5 h · μM)

---

# TEST TARGET: FimH (Escherichia coli, UniProt Q1R2J4)
# Construct: endogenous in cells; host or cells: E. coli UTI89 (whole bacteria)
# EXPERIMENT: Hemagglutination inhibition (HAI) assay with UTI89 bacteria and guinea pig red blood cells; further: ranges in brackets are in nM
# Format: cell-based
# STATED CONDITIONS: HAI titer (EC>90): concentration reducing bacterial agglutination of guinea pig red blood cells by greater than 90%
TEST READOUT: HAI

1) C[C@H](c1ccc(-c2cnc(C(F)(F)F)cn2)cc1C(F)(F)F)[C@H]1O[C@H](CO)[C@@H](O)[C@H](O)[C@@H]1O	“++++” (<50)
2) Cc1cc(-c2cc(F)cc(F)c2)ccc1[C@@H](C)[C@H]1O[C@H](CO)[C@@H](O)[C@H](O)[C@@H]1O (single isomer, unassigned)	“+++” (50-200)
3) CC[C@H](c1ccc(-c2cncc(C#N)c2)cc1C)[C@H]1O[C@H](CO)[C@@H](O)[C@H](O)[C@@H]1O	“+++” (50-200)
4) Cc1cc(-c2cc(F)c(Cl)c(F)c2)ccc1[C@@H](CO)[C@H]1O[C@H](CO)[C@@H](O)[C@H](O)[C@@H]1O	“++++” (<50)

---

# EXPERIMENT: Rat pharmacokinetics after IV infusion and oral dose (AUC oral, % F, Ue % PO)
# Type: in vivo, Male Wistar Han rats
# STATED CONDITIONS: male, Wistar Han, whole blood, oral bioavailability, PO 5 mg/kg vs IV infusion 1 mg/kg
TEST READOUT: bioavailability

1. Cc1cc(-c2cc(C(F)(F)F)ccn2)ccc1[C@@H](C)[C@H]1O[C@H](CO)[C@@H](O)[C@H](O)[C@@H]1O (single isomer, unassigned) [Example 2]	> 30%
2. Cc1cc(-c2cncc(C(F)(F)F)n2)ccc1[C@@H](C)[C@H]1O[C@H](CO)[C@@H](O)[C@H](O)[C@@H]1O [Example 29]	10 to 30%

## Task Returns the measured bioavailability for the input compound. Input: Cc1cc(-c2cnc(C(F)(F)F)cn2)ccc1[C@@H](C)[C@H]1O[C@H](CO)[C@@H](O)[C@H](O)[C@@H]1O [Example 1]
## Result > 30%

## Task Returns the measured bioavailability for the input compound. Input: Cc1cc(-c2cncc(C(F)(F)F)c2)ccc1[C@@H](C)[C@H]1O[C@H](CO)[C@@H](O)[C@H](O)[C@@H]1O [Example 4]
## Result > 30%

## Task Returns the measured bioavailability for the input compound. Input: C[C@H](c1ccc(-c2cnc(C(F)(F)F)cn2)cc1C(F)(F)F)[C@H]1O[C@H](CO)[C@@H](O)[C@H](O)[C@@H]1O [Example 3]
## Result > 30%

## Task Returns the measured bioavailability for the input compound. Input: Cc1cc(-c2cc(F)c(Cl)c(F)c2)ccc1[C@@H](CO)[C@H]1O[C@H](CO)[C@@H](O)[C@H](O)[C@@H]1O [Example 7]
## Result 10 to 30%
